Target: T1, Histidine-tagged human CD40 protein (hCD40-His) (human, UniProt P25942 21-193)
T1 construct: not shown: histidine tag
T1 sequence (P25942 21-193 limits assumed): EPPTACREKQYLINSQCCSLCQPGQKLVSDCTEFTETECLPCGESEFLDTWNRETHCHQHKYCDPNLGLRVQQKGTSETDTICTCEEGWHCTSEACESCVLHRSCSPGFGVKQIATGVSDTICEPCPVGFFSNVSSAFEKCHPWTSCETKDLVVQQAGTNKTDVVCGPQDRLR
Experiment: SPR, Biacore T200; antibody on Protein A chip, hCD40-His injected; 1:1 fit

binder	result.units	Kd
4H6-H2K4-IgG4 (antibody, V domains shown, Humanized) VH: EVQLQESGPGLVKPSQTLSLTCTVSGDSVSSGYWNWIRKHPGKKLEWIGFISYSGSTYYTPSLKSRVTISRDTSKNQFSLKLSSVTAADTAVYYCARFRRYDDGVDYWGQGTLVTVSS VL: DIQMTQSPSAMSASVGDRVTLTCRASHEISGYLSWIQQKPGGTIKRLINAASTLASGVPSRFSGSRSGTEYTLTISSLQPEDFADYYCLQYSSYPWTFGGGTKLEIK	nM	378
6A7-H4K3-IgG4 (antibody, V domains shown, Humanized) VH: QVQLVQSGAEVKKPGASVKLSCKASGYTFISYYIYWVKQAPGQGLEWIGGINPRNGGTNFNEKFKSRATLTVDTSISTAYMELSRLRSEDTAVYYCTRHGNGVYWGQGTTLTVSS VL: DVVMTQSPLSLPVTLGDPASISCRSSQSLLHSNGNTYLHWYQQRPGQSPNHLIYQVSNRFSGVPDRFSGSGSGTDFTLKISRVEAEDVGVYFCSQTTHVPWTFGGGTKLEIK	nM	3.49
4H6-H3K1-IgG4 (antibody, V domains shown, Humanized) VH: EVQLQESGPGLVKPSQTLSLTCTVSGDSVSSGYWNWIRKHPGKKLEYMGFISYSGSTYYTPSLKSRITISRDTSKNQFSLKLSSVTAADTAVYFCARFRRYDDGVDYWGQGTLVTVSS VL: DIQMTQSPSAMSASVGDRVTITCRASHEISGYLSWFQQKPGGVIKRLINAASTLASGVPSRFSGSRSGTEFTLTISSLQPEDFATYYCLQYSSYPWTFGGGTKLEIK	nM	413
